# System: CAKI-1 renal
# procedure summary: NCI tumour cell line growth inhibition, 48 h
Here, each record is paired with measured TGI data.

Please review the entries below; each comes with its answer.
CC1=C(C#N)C2C(=C(N)Oc3ccccc32)C(N)=N1 (stereo not given); 53.9 µM
OCc1ccc2c(c1)CC1(C2)Cc2cc3c(cc2C1)CCC3; > 100 µM
N#Cc1c(C#N)c(-c2ccco2)n(-c2ccccc2)c1N; > 100 µM

[Q] Lab note: need TGI for COCOCC1CCCN1CN1CCC[C@H]1COCOC (stereo not given in full) on CAKI-1 renal, anyone have it?
[A] > 100 µM

[Q] Any idea what TGI came out for CCOC(CI)O[C@@H]1C=C[C@H](OC(C)=O)C1 (stereo not given in full) on CAKI-1 renal?
[A] > 100 µM

[Q] Lab request: please report TGI under test system CAKI-1 renal for `c1ccc(N=c2sc3ccccc3sc2=Nc2ccccc2)cc1`
[A] 4.59 µM

* * *

# Test system: NCI-H522 lung
# procedure summary: NCI tumour cell line growth inhibition, 48 h
Listed here are molecules together with their documented TGI.
Please respond with the number in nM and leave the unit unwritten.

[Q] Entry `CC1(C)CC(OCCCC[P+](c2ccccc2)(c2ccccc2)c2ccccc2)CC(C)(C)N1O` : reported TGI = ?
[A] 1160

[Q] # lookup: TGI of `c1ccc(-c2nnc(Nc3ccc4c(c3)OCCO4)o2)c(NCc2ccncc2)c1`
[A] 860

[Q] Would you mind telling me what TGI value was observed for `CCC[CH2][Sn]([CH2]CCC)([O]C(=O)c1cc(OC)c(OC)cc1OC)[O]C(=O)c1cc(OC)c(OC)cc1OC` ?
[A] 1140

* * *

Examples of compounds with documented TGI follow.
# Tested on: SNB-75 CNS
# procedure summary: NCI tumour cell line growth inhibition, 48 h

Before answering, review these 8 worked examples.
Cc1ccc2c(Nc3cccc(Cl)c3F)ncc(NC(=O)c3csc4c(N)ncnc34)c2c1; > 100 µM
CC1=C(C#N)C2C(=C(N)Oc3ccccc32)C(N)=N1 (stereo not given); 64.1 µM
COc1ccc2oc(=O)c(CC=C(C)C)c(O)c2c1C; > 100 µM
O=C(NNc1ccccc1)OCc1ccccc1; > 100 µM
Cc1ccc(N=Nc2c(N)nn(-c3ccccc3)c2N)cc1; > 78.3 µM
COc1ccc(CC2c3cc(OC)c(OC)c(OC)c3CC[N+]2(C)C)cc1Oc1ccc(CC2c3cc4c(c(OC)c3CCN2C)OCO4)cc1 (stereo not given); > 100 µM
COC(=O)[C@]12CCC(C)(C)C[C@H]1C1=CC[C@@H]3[C@@]4(C)CC[C@H](OC5OC(CO)C(O)C(O)C5OC5OC(CO)C(O)C(O)C5O)C(C)(C)[C@@H]4CC[C@@]3(C)[C@]1(C)CC2 (stereo not given in full); 26.4 µM
CCOC(=O)NC; > 100 µM

[Q] Can you look up TGI on SNB-75 CNS for CCOC(=O)C(Cc1ccccc1)NC(=O)OC(C)(C)C (stereo not given) ?
[A] > 100 µM

[Q] What measured TGI is associated with COc1ccc(/C=C2\SC(c3ccc(OC)cc3)N(NC(=O)Cc3ccccc3)C2=O)cc1 (stereo not given) on SNB-75 CNS?
[A] > 100 µM

* * *

# Test system: MDA-MB-435
# procedure summary: NCI tumour cell line growth inhibition, 48 h
Measured TGI of individual entries
Expressed in µM, but write only the number.

S=C=NCc1ccccc1; 8.33

[Q] # query: TGI | item ClC1=NC(Cl)C(Cl)=N/C1=N\c1ncn[nH]1 (stereo not drawn) | system: MDA-MB-435
[A] 6.01

* * *

# Tested on: SW-620 colon
# procedure summary: NCI tumour cell line growth inhibition, 48 h
measured metric: TGI (µM)
I only need the number, in µM, no unit after it.

CCC[CH2][Ge]([CH2]CCC)([CH2]CCC)[O]C(=O)C(O)c1ccccc1 (configuration not stated); 20.4
CN1CCN(Cc2ccc(NC(=O)c3nc4ccc5[nH]ncc5c4c4c3CCC4)cc2C(F)(F)F)CC1; 2.03

[Q] Query for SW-620 colon: what TGI does the record show for `CC(C)[Si](OC1=C(C(=O)N(C)c2ccccc2Cl)CCCC1)(C(C)C)C(C)C` ?
[A] 33.3

* * *

# Test system: K-562 leukemia
# procedure summary: NCI tumour cell line growth inhibition, 48 h
measured metric: TGI

Check out these entries, answers already filled in.
COc1cc2ccnc(-c3c4ccccc4c(N)c4c(OC)c(OC)ccc34)c2cc1OC; 7.98 µM
COc1ccc2c(c1)sc1nc(-c3ccccc3)c(-c3ccc(O)c(OC)c3)n12; > 100 µM
CC(=O)OCC1OC(n2c(=O)n(-c3ccccc3)c(=O)c3cc(Br)cc(Br)c32)C(OC(C)=O)C(OC(C)=O)C1OC(C)=O (centres undefined); > 100 µM

[Q] Query the reported TGI for K-562 leukemia; item: `CCCN(CCC)c1cc2c(cc1F)c(=O)c(C(=O)O)cn2-c1ccc(N2CCN(C)CC2)cn1`
[A] 55.1 µM

[Q] I'm curious: which TGI was measured for CC(C)(C)OC(=O)NC(Cc1ccc(OCc2ccccc2)cn1)C(=O)NCc1ccccc1 (centres undefined) tested on K-562 leukemia?
[A] > 100 µM

[Q] So what TGI did COc1cc2c(cc1OC)C1CCc3ccccc3CN1CC2 (centres undefined) get with K-562 leukemia?
[A] > 100 µM

[Q] // fetch K-562 leukemia TGI for `C=CC(=O)N1CCC([C@@H]2CCNc3c(C(N)=O)c(-c4ccc(Oc5ccccc5)cc4)nn32)CC1`
[A] > 100 µM

[Q] What measured TGI is associated with `Nc1ccc2cc3[nH]c4cc(N)ccc4c3nc2c1` on K-562 leukemia?
[A] > 22.6 µM

[Q] Param readout= TGI; system= K-562 leukemia; entry= `O=C1c2ccccc2C(=O)c2c1ccc(C(=O)O)c2-c1ccc2ccccc2c1` ; returns value.
[A] 85.7 µM

* * *

# Tested on: CAKI-1 renal
# procedure summary: NCI tumour cell line growth inhibition, 48 h
Where a SMILES comes first, the peptide text is derived from it. [ ]: non-standard residue; d: D form. NMeY = CN[C@@H](Cc1ccc(O)cc1)C(=O)O; dNMeF = CN[C@H](Cc1ccccc1)C(=O)O; Sar = CNCC(=O)O
Parameter TGI: see the listing below.

CCN(CC)CCOC(=O)CCN1CC2CCC(CC2)C1; > 100 µM

[Q] // lookup TGI | system=CAKI-1 renal | key= `NC1=CN(Cc2ccccc2)C2=N/C(=C\c3ccccc3)C(=O)N12`
[A] > 100 µM

[Q] Write down the reported TGI of CC(=O)NC(CS)C(=O)NC(CO)C(=O)NC(CO)C(=O)NC(Cc1c[nH]c2ccccc12)C(=O)N1CCCC1C(=O)NC(CO)C(=O)NC(Cc1c[nH]c2ccccc12)C(=O)NC(Cc1c[nH]cn1)C(=O)NC(CO)C(=O)NC(Cc1c[nH]c2ccccc12)C(=O)NCC(=O)NCC(=O)NC(CC(=O)O)C(=O)NC(CCC(N)=O)C(=O)NC(CCCCN)C(=O)NC(Cc1ccccc1)C(=O)NC(CCCNC(=N)N)C(=O)NC(CCCCN)C(N)=O (centres undefined) (Ac-CSSWPSWHSWGGDQKFRK-NH2; configuration not given here) , test system: CAKI-1 renal.
[A] > 25 µM

[Q] Missing value: TGI, CAKI-1 renal, entry CC(C)(C)OC(=O)NC(Cc1ccc(OCc2ccccc2)cn1)C(=O)NCc1ccccc1 (centres undefined) . Fill in?
[A] > 100 µM

[Q] Give the reported TGI for `O=C1Oc2ccccc2C(=O)/C1=C/N1C(=O)N/C(=C\c2cccc(O)c2)C1=O` (system: CAKI-1 renal).
[A] > 100 µM

[Q] What is its TGI for CAKI-1 renal? Entry: CC1(O)CC23CC1CCC2(C)C12CCCC(C)(C(=O)O1)C2CC3O (centres undefined)
[A] > 100 µM

[Q] CAKI-1 renal / TGI / `Nc1nnc(N)n1NC(=O)C(=O)Nc1ccc([N+](=O)[O-])cc1` : value?
[A] > 100 µM

[Q] What TGI appears in the records for this compound with CAKI-1 renal? CC1(c2nc3ccccc3[nH]2)CCC(C(N)=O)C(C)(C)O1 (centres undefined)
[A] > 100 µM

[Q] Short answer please: TGI, CAKI-1 renal, entry COc1ccc(CC2c3cc(OC)c(OC)c(OC)c3CC[N+]2(C)C)cc1Oc1ccc(CC2c3cc4c(c(OC)c3CCN2C)OCO4)cc1 (centres undefined)
[A] > 100 µM

[Q] Please state recorded TGI (tested on CAKI-1 renal) of `COc1cc(S(=O)(=O)Nc2nc(-c3ccc(N)cc3)cs2)ccc1Cl`
[A] > 100 µM

[Q] # get_value(readout= TGI, system= CAKI-1 renal) for CC(=O)OC1C/C(C)=C/CCC(C)/C=C/C2(C)CCC(C(C)(C)O)C12 (centres undefined)
[A] > 100 µM

[Q] Which measured TGI belongs to `Cc1cc(C)n(-c2nc3ccccc3c(=O)n2-c2ccccc2)n1` , tested on CAKI-1 renal?
[A] > 100 µM

[Q] Hi! What's the reported TGI for `Nc1c(C(=O)c2cccc(C#CCN3CCOCC3)c2)cnn1-c1ccc(F)cc1` on CAKI-1 renal?
[A] > 25 µM

[Q] Recorded TGI for `CCOC(=O)c1ccc(Nc2sc(C(=O)c3cccc([N+](=O)[O-])c3)c(N)c2C#N)cc1` with CAKI-1 renal, please?
[A] 0.253 µM

[Q] Notebook: pull reported TGI for CAKI-1 renal, entry CC[C@H](C)[C@@H]1NC(=O)[C@H](Cc2ccc(O)cc2)N(C)C(=O)[C@H](Cc2ccccc2)NC(=O)CN(C)C(=O)[C@@H]2CCCN2C(=O)[C@@H](Cc2ccccc2)N(C)C(=O)[C@H](CC(C)C)NC1=O (cyclo(F[NMeY]IL[dNMeF]P[Sar]))
[A] 11.3 µM

[Q] Lab note: need TGI with CAKI-1 renal for entry CC(=O)C1C(=O)C(=O)N(c2ccccc2N2C(=O)C(=O)C(C(C)=O)C2=O)C1=O (centres undefined) , please look it up.
[A] > 100 µM

[Q] What is its TGI for CAKI-1 renal? Entry: `O=c1oc2ccc(Cl)cc2c(=O)n1-c1cc(C(F)(F)F)cc(C(F)(F)F)c1`
[A] 0.689 µM

[Q] Item: `Cc1cc(=O)oc2c1cc(OCC(=O)OCCN1CCCCC1)c1occ(C)c12` Test system: CAKI-1 renal Read-out: TGI Value: ?
[A] > 100 µM

[Q] # value lookup — system CAKI-1 renal, readout TGI, item `COc1ccc2oc(=O)c3c(c2c1C)OC(C)(C)C=C3`
[A] > 100 µM

[Q] Write down the reported TGI of Cc1ccccc1NC(=O)C1C(=O)N(c2ccccc2C)C(=O)/C1=N\N (centres undefined) , test system: CAKI-1 renal.
[A] > 100 µM

[Q] Can you look up TGI on CAKI-1 renal for `S=C(N/N=C(/c1ccccc1)c1ccccn1)Nc1ccc(Cl)cc1` ?
[A] 9.37 µM
